- Substrate: tripropionin
- settings: pH 7; 25 °C
measured.parameter: Km (mM)
Give your result in mM as a bare value.

Answered cases to consult:
protein	recorded.number
unnamed (protein) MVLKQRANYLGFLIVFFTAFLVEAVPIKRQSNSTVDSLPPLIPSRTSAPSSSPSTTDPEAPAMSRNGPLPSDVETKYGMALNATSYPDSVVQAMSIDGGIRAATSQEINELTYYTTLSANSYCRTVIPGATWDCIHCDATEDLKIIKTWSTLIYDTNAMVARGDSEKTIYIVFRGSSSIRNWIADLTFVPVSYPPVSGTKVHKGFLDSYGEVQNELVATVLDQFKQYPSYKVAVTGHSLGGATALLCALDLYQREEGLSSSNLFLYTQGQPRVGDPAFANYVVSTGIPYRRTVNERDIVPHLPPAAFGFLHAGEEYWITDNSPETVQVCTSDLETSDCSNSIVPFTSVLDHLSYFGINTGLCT	18
unnamed (protein) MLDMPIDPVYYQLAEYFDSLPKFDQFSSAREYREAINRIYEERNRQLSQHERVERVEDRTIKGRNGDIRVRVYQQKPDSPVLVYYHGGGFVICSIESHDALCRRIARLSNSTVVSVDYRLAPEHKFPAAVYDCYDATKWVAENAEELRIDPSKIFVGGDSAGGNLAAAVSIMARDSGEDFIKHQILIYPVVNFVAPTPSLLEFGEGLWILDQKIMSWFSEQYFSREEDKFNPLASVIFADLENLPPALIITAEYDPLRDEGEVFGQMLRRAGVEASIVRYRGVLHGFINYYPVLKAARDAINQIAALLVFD	0.3

Now examine the next entry.
Name the recorded Km of the item unnamed (protein) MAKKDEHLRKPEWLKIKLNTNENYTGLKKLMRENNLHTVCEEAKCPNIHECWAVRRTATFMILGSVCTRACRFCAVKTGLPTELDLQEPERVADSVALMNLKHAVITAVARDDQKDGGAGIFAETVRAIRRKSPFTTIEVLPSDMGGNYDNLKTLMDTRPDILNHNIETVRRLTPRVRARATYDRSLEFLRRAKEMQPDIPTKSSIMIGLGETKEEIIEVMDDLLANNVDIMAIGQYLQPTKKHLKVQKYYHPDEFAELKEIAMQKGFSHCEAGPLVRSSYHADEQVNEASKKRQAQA in your answer.
12
